All figures here come from patent US20230265151A1.

# system: hGLP-1R (Homo sapiens, UniProt P43220)
# test-details: cell-based or functional assay
Measured cAMP Emax by item
# value in %; strip the unit string

{"binder": "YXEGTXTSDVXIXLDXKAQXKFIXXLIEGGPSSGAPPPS (Y-Aib-EGT-αMeF(2F)-TSDV-Aib-I-αMeL-LD-Orn-K((2-[2-(2-Amino-ethoxy)-ethoxy]-acetyl)2-CO-(CH2)12-CO2H)AQ-Aib-K((2-[2-(2-Amino-ethoxy)-ethoxy]-acetyl)2-CO-(CH2)12-CO2H)FI-(D-Glu)-αMeY-LIEGGPSSGAPPPS-NH2) [Example 386]", "value-measured": 98.9}
{"binder": "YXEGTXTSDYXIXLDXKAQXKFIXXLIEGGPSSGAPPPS (Y-Aib-EGT-αMeF(2F)-TSDY-Aib-I-αMeL-LD-Orn-K((2-[2-(2-Amino-ethoxy)-ethoxy]-acetyl)-(γ-Glu)-(10-(4-carboxyphenoxy)decanoyl))AQ-Aib-K((2-[2-(2-Amino-ethoxy)-ethoxy]-acetyl)-(γ-Glu)-(10-(4-carboxyphenoxy)decanoyl))FI-(D-Glu)-αMeY-LIEGGPSSGAPPPS-NH2) [Example 372]", "value-measured": 108}
{"binder": "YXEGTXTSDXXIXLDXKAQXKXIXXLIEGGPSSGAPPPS (not fully specified; Y-Aib-EGT-αMeF(2F)-TSD-4Pal-Aib-I-αMeL-LD-Orn-K((2-[2-(2-Amino-ethoxy)-ethoxy]-acetyl)2-(γ Glu)-CO-(CH2)10H3)AQ-Aib-K((2-[2-(2-Amino-ethoxy)-ethoxy]-acetyl)2-(γGlu)-CO-(CH2)10C3)-αMeFI-(D-Glu)-αMeY-LIEGGPSSGAPPPS-NH2) [Example 430]", "value-measured": 93.1}

Given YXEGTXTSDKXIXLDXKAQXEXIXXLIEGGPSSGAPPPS (Y-Aib-EGT-αMeF(2F)-TSDK((2-[2-(2-Amino-ethoxy)-ethoxy]-acetyl)2-(γ-Glu)-CO-(CH2)10-CH3)-Aib-I-αMeL-LD-Orn-K((2-[2-(2-Amino-ethoxy)-ethoxy]-acetyl)2-(γ-Glu)-CO-(CH2)10-CH3)AQ-Aib-E-αMeF-I-(D-Glu)-αMeY-LIEGGPSSGAPPPS-NH2) [Example 429] , state its recorded cAMP Emax.
116

Entry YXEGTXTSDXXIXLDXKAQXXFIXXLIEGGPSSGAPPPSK (Y-Aib-EGT-αMeF(2F)-TSD-4Pal-Aib-I-αMeL-LD-Orn-K((2-[2-(2-Amino-ethoxy)-ethoxy]-acetyl)3-(γ Glu)-CO-(CH2)10CH3)AQ-Aib-Orn-FI-(D-Glu)-αMeY-LIEGGPSSGAPPPSK((2-[2-(2-Amino-ethoxy)-ethoxy]-acetyl)3-(γ-Glu)-CO-(CH2)10-CH3)-NH2) [Example 435] please
111

Entry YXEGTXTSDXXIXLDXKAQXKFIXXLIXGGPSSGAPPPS (Y-Aib-EGT-αMeF(2F)-TSD-4Pal-Aib-I-αMeL-LD-Orn-K((2-[2-(2-Amino-ethoxy)-ethoxy]-acetyl)2-(γ-Glu)-(10-(4-carboxyphenoxy)decanoyl))AQ-Aib-K((2-[2-(2-Amino-ethoxy)-ethoxy]-acetyl)2-(γ-Glu)-(10-(4-carboxyphenoxy)decanoyl))FI-(D-Glu)-αMeY-LI-Orn-GGPSSGAPPPS-NH2) [Example 408] please
102
